# PROCEDURE_TEXT: qHTS Assay for Inhibitors of Hepatitis C Virus (HCV)
# MEASUREMENT_SETUP: Huh7.5.1 HCVcc-Cre infection, luciferase reporter, 44 h; series mostly up to 41.8 µM
Screen size: about 340,000 compounds; about 12,000 (3.5%) were called active. Not shown: some 18% with an inconclusive outcome. Calls follow the shape of the dose curve; as a rule, active = well fitted inhibition curve with a large enough effect; inconclusive = small, poorly fitted or top-dose-only effect, or another doubt; inactive = no such curve, though single readings can be large or run the other way. The list comes from a sample in which actives are over-represented; it also holds close analogues and randomly drawn compounds.
Bench note: report the call from active, inactive

Each compound tested received a call. Report the one for CC(c1nnc(SCC(=O)Nc2sccc2C#N)n1-c1ccc(Cl)cc1)N(C)C (configuration not stated) . active

Name the outcome recorded for `COc1ccc(NC(=O)N2CCC3(CC2)OCCO3)c(OC)c1` in the assay. inactive

Dear colleague, could you share the recorded outcome for `CCCCn1c(N)c(N(CCOC)C(=O)c2cccc(S(=O)(=O)N3CCCCC3)c2)c(=O)[nH]c1=O` when you have a moment? inactive

State the result this test recorded for `O=C(COC(=O)Cn1[nH]c(=O)c2ccccc2c1=O)Nc1ncc(Cl)cc1Cl` . inactive

GET /call?item= `C[C@@H]1NS(=O)(=O)c2cc(Cl)ccc2O[C@@H]1c1ccccc1` returns the recorded outcome of this test. inactive

What call does the record list for Cn1nccc1C(=O)NC1CCCc2c1cnn2-c1ccccc1F (configuration not stated) ? active

Each compound tested received a call. Report the one for Nc1ccc2c(c1)C(O)c1ccc(Cl)cc1-2 (configuration not stated) . inactive

Each compound tested received a call. Report the one for CC(OC(=O)/C=C/c1ccccc1)C(=O)Nc1ccc(C(N)=O)cc1 (configuration not stated) . inactive

Kindly provide the recorded test outcome for the following compound: CC(C)Cn1c(N)c(C(=O)COC(=O)C2CCCN2C(=O)c2cccs2)c(=O)n(C)c1=O (configuration not stated) inactive

Any idea what this test logged for COc1ccc(C(=O)NC2CCCc3c2cnn3-c2cccc(C)c2C)c(OC)n1 (configuration not stated) ? active

What call does the record list for `O=C1CCC/C=C/C[C@@H](CC(=O)N(CCO)Cc2ccccc2)C(=O)NC[C@H](c2ccccc2)O1` ? inactive

Recorded call for `COc1cccc(-c2cc3nc4c(c(N5CCC6(CC5)OCCO6)n3n2)CCCC4)c1` ? active

Hello, I am checking results. What call was entered for `COc1ccccc1C(=O)Nc1ccc(Nc2ccccc2)cc1` ? inactive

So what was the verdict on `N/C(=N\OC(=O)CCc1ccccc1)c1cccnc1` in this test? inactive

Hey, what did the test say about CCCC(O)(c1ccccc1)C(c1ccccc1)c1ccccn1 (configuration not stated) ? inactive

So what was the verdict on CN1C(C(=O)NCc2ccco2)CC2Cn3c(nc4ccccc43)C21 (configuration not stated) in this test? inactive

Hey, what did the test say about CN(C(=O)CN1C(=O)NC(C)(CCc2ccccc2)C1=O)c1ccccc1 (configuration not stated) ? inactive

// return assay outcome for `Cc1cccc(NC(=O)c2ccccc2NC(=O)C(C)(C)C)n1` inactive

Query: recorded result category for `COc1cccc(C(=O)Nc2c3c(nn2-c2cccc(C)c2C)CS(=O)(=O)C3)c1OC` in this test inactive

// outcome(item) with item = `Cc1ccc(-c2csc(C(C#N)=C(O)CN3CCN(C(=O)c4ccco4)CC3)n2)cc1` inactive

What did the test return for `Cc1csc(NC(=O)C2=COCCO2)n1` ? inactive

For CC(=O)NCC(=O)NC1CCCc2c1cnn2-c1ccccc1F (configuration not stated) , which call appears in the assay record? inactive

* * *

# PROCEDURE_TEXT: qHTS Assay for Inhibitors of Hepatitis C Virus (HCV)
# MEASUREMENT_SETUP: Huh7.5.1 HCVcc-Cre infection, luciferase reporter, 44 h; series mostly up to 41.8 µM
Out of some 340,000 compounds screened, about 12,000 (3.5%) were called active. Not shown: some 18% with an inconclusive outcome. Calls come from the whole dose curve; as a rule, active = well fitted inhibition curve with a large enough effect; inconclusive = small, poorly fitted or top-dose-only effect, or another doubt; inactive = no such curve, though single readings can be large or run the other way. What follows is part of a selection rich in actives, with near analogues and random picks from the rest.
Would you mind answering with one of these outcomes? t for active, f for inactive

# fetch the recorded call for `COCCN(Cc1cc2cc3c(cc2nc1Cl)OCO3)C(=O)c1cccc(C)c1` here t

What call does the record list for `Cc1occc1-c1nnc(SCC(=O)NC2CCCCC2)o1` ? f

Hey, what did the test say about `CCOc1ccc(C(=O)NC2CCN(C(=O)Nc3ccccc3OC)CC2)cc1` ? f
